Data provenance is paper PMC10779535.

# TARGET_DESC: UniProt P35462
# Sequence (P35462 whole entry): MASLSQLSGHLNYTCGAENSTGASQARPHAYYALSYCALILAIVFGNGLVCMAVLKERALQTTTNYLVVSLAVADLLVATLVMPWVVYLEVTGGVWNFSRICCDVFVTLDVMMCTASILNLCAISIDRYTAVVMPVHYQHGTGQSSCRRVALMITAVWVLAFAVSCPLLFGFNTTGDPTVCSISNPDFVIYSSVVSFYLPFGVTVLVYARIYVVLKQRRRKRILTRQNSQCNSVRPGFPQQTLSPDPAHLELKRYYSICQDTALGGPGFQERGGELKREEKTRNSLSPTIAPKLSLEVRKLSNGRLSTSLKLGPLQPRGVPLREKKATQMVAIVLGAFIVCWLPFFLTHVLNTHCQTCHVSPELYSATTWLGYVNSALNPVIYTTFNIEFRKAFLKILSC
# ASSAY_COMMENT: D3R radioligand binding assay ([125I]IABN, HEK cells)
# Design: expressed in transfected cells
# DETAILS: (Ki for D2R)/(Ki for D3R); D3R versus D2R selectivity (fold)
Listed below: D2R/D3R Ratio values for each entry.
API note: the answer field is a bare number with no unit suffix.

> print(dat)
                                   compound     target.desc  endpoint.name  assay.result
1  C=CCN1C[C@H](OC(=O)NCCCCCCCC)C[C@H]1CNC(=O)c1cc(CCCF)cc(OC)c1OC [(R,S)-trans-2c]  UniProt P35462  D2R/D3R Ratio           4.7
2  C=CCN1C[C@@H](OC(=O)NCCCCCCCCCC)C[C@@H]1CNC(=O)c1cc(CCCF)cc(OC)c1OC [(S,R)-trans-2d]  UniProt P35462  D2R/D3R Ratio           0.7
3  C=CCN1C[C@H](OC(=O)NCCCCCCc2cccs2)C[C@H]1CNC(=O)c1cc(CCCF)cc(OC)c1OC [(R,S)-trans-2h]  UniProt P35462  D2R/D3R Ratio           6.2
4  C=CCN1C[C@H](OC(=O)NCCCCCCCCc2ccsc2)C[C@H]1CNC(=O)c1cc(CCCF)cc(OC)c1OC [(R,S)-trans-2j]  UniProt P35462  D2R/D3R Ratio           5.0

Prompt: Quick one: D2R/D3R Ratio for C=CCN1C[C@H](OC(=O)NCCOCCOCCOCCOC)C[C@H]1CNC(=O)c1cc(CCCF)cc(OC)c1OC [(R,S)-trans-2f] ?
Response: 2.2

Prompt: Quick one: D2R/D3R Ratio for C=CCN1C[C@H](OC(=O)NCCCCCCCCc2cccs2)C[C@H]1CNC(=O)c1cc(CCCF)cc(OC)c1OC [(R,S)-trans-2i] ?
Response: 5.6

Prompt: Return reported D2R/D3R Ratio; argument: C=CCN1C[C@H](OC(=O)NCCCC)C[C@H]1CNC(=O)c1cc(CCCF)cc(OC)c1OC [(R,S)-trans-2a]
Response: 1.8

Prompt: Entry C=CCN1C[C@H](OC(=O)NCCCCCC)C[C@H]1CNC(=O)c1cc(CCCF)cc(OC)c1OC [(R,S)-trans-2b] has what D2R/D3R Ratio?
Response: 3.4
